# System: SF-295 CNS
# Experiment: NCI-60 one-dose screen, 48 h
# Condition notes: 10 µM unless noted
# Experimental: Cells are grown in 96 well plates and exposed to the test compound for 48 hours. Compounds are tested at a single concentration, which is 10^-5 M for most compounds. The reported endpoint is percent growth (GI% or GIPRCNT), where numbers from 0 - 100% represent growth inhibition, and numbers from -100% - 0 represent cell death. For example, a value of 40 represents 60% growth inhibition. A value of 0 means no net growth occurred over the course of the experiment. […]
About 83,000 compounds went through this panel and 20% of them were active in at least one assay; those are over-represented in the sample as a whole. Active and inactive are the calls of the source. Rule for the calls: active = growth percent below 10; inactive = the rest.
Select the matching outcome among class 1 (active), class 0 (inactive)

// below: answered molecules
Molecule | Assigned category
O=C(COc1cccc(/C=C2\Oc3ccc4ccccc4c3C2=O)c1)c1ccc(Cl)cc1 | class 0
O=C(Oc1ccccc1)C(Br)C(Br)c1ccccc1 (stereo not given) | class 0
O=C(N/N=C/c1cccc([N+](=O)[O-])c1)c1ccc(Br)o1 | class 0

Field: outcome | Entry: COc1ccc(C2=NN(C(C)=O)C(c3cccc(Nc4ccnc5cc(Cl)ccc45)c3)C2)cc1 (stereo not given) class 0

Name the outcome recorded for Nc1nc(SCc2cccnc2)c2ncn(C3OC(CO)C(O)C3O)c2n1 (stereo not given) in the assay. class 0

Write down the call the test reported for this molecule. Item: Nc1c(C(=O)Nc2cccc(Cl)c2)sc2nc3c(cc12)C(O)CCC3 (stereo not given) class 0

Assay outcome for `COc1ccc(N2CCN(CC(=O)N3CCN(c4nnc(-c5ccc(Cl)cc5)c(-c5ccc(Cl)cc5)n4)CC3)CC2)cc1` : what was it? class 0

Per the assay record, what outcome was assigned to `COc1ccc2nc(-c3ccc(Cl)cc3)cc(-c3nnc(SCC(=O)Nc4ccc(C(C)=O)cc4)n3-c3ccccc3)c2c1` ? class 0

Please indicate how the test categorized `O=C1c2cc3c(cc2-c2c1c1ccc(Cl)cc1c(=O)n2CCCNCCO)OCO3` . class 1

Record lookup: outcome of this test for COc1cc(/C=C/C(=O)CC(=O)/C=C/c2ccc(OC(=O)C3C4CC5CC(C4)CC3C5)c(OC)c2)ccc1OC(=O)C1C2CC3CC(C2)CC1C3 (stereo not given) ? class 0

====

# System: NCI-H460 lung
# Experiment: NCI-60 one-dose screen, 48 h (100 = growth as untreated, 0 = no growth, -100 = all killed)
# Condition notes: 10 µM unless noted
Compounds without any hit were thinned out: in the full panel of roughly 83,000, 20% have a hit. The source made the active and inactive calls. How the source made its calls: active means growth percent below 10; inactive means the rest.
Readout: growth

Consider the following illustrative entries.
Molecule | growth
CC(=O)[C@H]1CC[C@H]2[C@@H]3C[C@H](C)C4=CC(=O)CC[C@]4(C)[C@H]3C(=O)C[C@]12C | 107% (inactive)
CC(=O)OC1Oc2cc(C)c(C)cc2-c2oc(=O)c(-c3ccccc3)cc21 (configuration not stated) | 4.89% (active)
O=C(NC1CCCCC1)c1ccc(Nc2ncnc3c2cnn3-c2ccccc2)cc1 | 42.2% (inactive)

Provide each entry's growth from the list below.
1. Oc1ccccc1/C=N/N1CCCCCC1
2. O=c1[nH]cc(Nc2cc(Cl)c3nonc3c2[N+](=O)[O-])c(=O)[nH]1
3. CN[C@@H]1C(OC2[C@H](O[C@H]3[C@H](O)[C@@H](O)[C@H](N=C(N)N)[C@@H](O)[C@@H]3N=C(N)N)OC(C)[C@]2(O)CO)OC(CO)C(O)C1O (some centres not stated)
4. CC1CN(C2CCCCC2)C(=O)NC1=O (configuration not stated)
5. Cc1ccc(-c2c3c(N)nc(-c4ccncc4)nc3nc3c2c(C)nn3-c2ccccc2)cc1
6. COc1cc(/C(Cl)=C/C=C/C(=O)c2c(C)[n+]([O-])c3ccc(Cl)cc3[n+]2[O-])cc(OC)c1OC
7. COc1ccc(NC(=O)[C@@H]2C[C@H]2c2ccccc2)c(C(N)=O)c1

127% (inactive)
107% (inactive)
113% (inactive)
114% (inactive)
28.5% (inactive)
56.6% (inactive)
101% (inactive)

Give measured growth for every item shown.
1. CCOC(=O)C(Br)=P(c1ccccc1)(c1ccccc1)c1ccccc1
2. Clc1ccc(C2=NN(c3ccc(Cl)cc3)C(c3cccc(Nc4ccnc5cc(Cl)ccc45)c3)C2)cc1 (configuration not stated)
3. Nc1nc(NC2CC2)c2ncn(C3C=CC(CO)C3)c2n1 (configuration not stated)
4. COc1ccc(OC)c2c1CCC1(C2)NC(=O)NC1=O (configuration not stated)
5. O=c1sc2ncnc3ncn1c32

116% (inactive)
93.1% (inactive)
118% (inactive)
107% (inactive)
85.7% (inactive)

// batch mode: one growth value per listed entry
1. COc1cc(-c2n[nH]nc2-c2ccccn2)cc(OC)c1OC
2. N#Cc1c(NC(=O)c2ccco2)[n+]([O-])c2ccccc2[n+]1[O-]

104% (inactive)
107% (inactive)

====

# Tested on: SK-MEL-5 melanoma
# Experiment: NCI-60 one-dose screen, 48 h (100 = growth as untreated, 0 = no growth, -100 = all killed)
# Condition notes: 10 µM unless noted
Compounds without any hit were thinned out: in the full panel of roughly 83,000, 20% have a hit.
Readout: growth (%)
Numbers only, in %.

Compound | Unit text | growth
O=CN1N=C(c2ccc(Cl)cc2)CC1c1cccc(Nc2ccnc3cc(Cl)ccc23)c1 (stereo unspecified) | % | -63.2

For each entry beneath this line, provide reported growth.
1. CC12CCC3C(=CCc4cc(O)ccc43)C1CCC2=O (stereo unspecified)
2. CCOC(=O)C1=CCC(n2cc(C)c(=O)[nH]c2=O)O1 (stereo unspecified)

1: 97.5; 2: 112

Each of the following entries comes with a recorded value; kindly state growth for each.
1. C/C=C(/C(=C/C)c1ccc(O)cc1)c1ccc(O)cc1
2. N#CSCC1CC(O)(c2ccccc2)C(c2ccccc2)C(c2ccc(Cl)cc2)O1 (stereo unspecified)
3. Cn1cc(NC(=O)Nc2cc(C(=O)O)n(C)c2)cc1C(=O)O

5.64
-87.4
93.6

====

# Tested on: NCI-H226 lung
# Experiment: NCI-60 one-dose screen, 48 h
# Condition notes: 10 µM unless noted
About 83,000 compounds went through this panel and 20% of them were active in at least one assay; those are over-represented in the sample as a whole. Activity calls are given as the source filed them. Rule for the calls: active = growth percent below 10; inactive = the rest.
// one of true (1) for active, false (0) for inactive, no free text

Observe how each entry below is paired with its result.
Compound | Assigned category
COC(=O)C1CCN(S(=O)(=O)c2ccc(-c3ccccc3)cc2)CC1 | false (0)
O=C1CSC(c2ccccc2O)N1c1nnc(Cn2ccnc2)o1 (stereo not given) | false (0)
NS(=O)(=O)c1ccc(-n2nc(-c3ccc(Br)cc3)ccc2=O)cc1 | false (0)
COc1cc(-c2nc3nc4sc(C)c(C)c4c(=O)n3[nH]2)cc(OC)c1OC | false (0)
Cc1cc(=O)[nH]c(/C(=N/Nc2ccccc2)C(=O)c2ccc(Cl)cc2)n1 | false (0)

Dear all, I need the recorded test outcome for `O=C(N/N=C/c1ccc(Cl)cc1Cl)c1ccccc1Nc1cccc(C(F)(F)F)c1` , thank you. false (0)

Which result was noted for this compound in the test: `N#Cc1c(-c2ccccc2)cc(-c2ccccc2)n(CCC(=O)O)c1=O` false (0)

Please let me know the test result on file for C/C(=C\CCc1ccoc1)CC/C=C(\C)CCCC1COC(=O)C1 (stereo not given) . false (0)

Tell me the assay call for `c1ccc(-c2oc(-c3ccccc3)c3ccccc23)cc1` please. false (0)

State the result this test recorded for `COc1cc(/C=C2\SC(N3CCCCC3)=NC2=O)ccc1OCCCCCCOc1ccc(/C=C2\SC(N3CCCCC3)=NC2=O)cc1OC` . true (1)

====

Consider the following compounds; for each one, report its growth.
# Test system: U251 CNS
# Experiment: NCI-60 one-dose screen, 48 h (100 = growth as untreated, 0 = no growth, -100 = all killed)
# Condition notes: 10 µM unless noted
Compounds without any hit were thinned out: in the full panel of roughly 83,000, 20% have a hit.
Numbers only, in %.

Compound | growth (%)
OC(c1cc(-c2cccc(Cl)c2)nc2ccccc12)C1CCCCN1 (centres undefined) | -85.1
COc1cc(NC(=O)NCc2ccco2)ccc1-c1ccc(NC(=O)NCc2ccco2)cc1OC | 12.4
Cc1ccccc1NC(=O)NC(CC(N)=O)c1ccc2c(c1)nc(-c1cccc(Oc3ccc(C(C)(C)C)cc3)c1)n2CCCN1CCCCC1C (centres undefined) | -74.2

Parameter requested: growth. Apply to each item below.
1. COc1ccc2nc(N/N=C(\C)c3ccccn3)cc(C)c2c1
2. Nc1nc(SCc2cccnc2)c2ncn(C3OC(CO)C(O)C3O)c2n1 (centres undefined)

-85.5
98.3

Take each entry in turn and give its growth.
1. Nc1nc2c(c(=O)[nH]1)C1(C(=O)Nc3ccccc31)c1c(nc(N)[nH]c1=O)N2
2. CC(=O)N1N=C(c2ccc(Nc3nc(NCCO)nc(NCCO)n3)cc2)CC1c1ccc(Cl)cc1 (centres undefined)
3. O=c1sc2ncnc3ncn1c32
4. COc1cc(C2CC(c3ccc(C)cc3)=NN2C=O)ccc1OCCN(C)C (centres undefined)

107
94.3
87.4
92.2

State the recorded growth for every item in the following list.
1. C=C(CN1CCc2c([nH]c3ccccc23)C1)c1ccc(C(=O)Nc2ccon2)cc1
2. O=C(COc1cccc(/C=C2\Oc3ccc4ccccc4c3C2=O)c1)c1ccc(Cl)cc1
3. CCOC(=O)/C=C1/SC(=Nc2ccc(C#N)cc2)N(Cc2ccco2)C1=O
4. CSc1nc(Nc2ccc(S(=O)(=O)Nc3ccon3)cc2)c(C#N)c(-c2ccc(Cl)cc2)n1
5. Cc1sc2nc(NCCc3cccs3)[nH]c(=O)c2c1C

92
61.5
59.8
88.2
75.8
